target: Nuclear receptor subfamily 5 group A member 2 (Homo sapiens) (UniProt O00482); experiment: LRH-1 (NR5A2) inverse agonists, primary screen, cell-based, luminescence, HEK293T, StAR-luciferase reporter (AID 602396); conditions: LRH-1 transfected, 24 h, at 3.6 µM
Sequence (O00482 whole entry, looked up): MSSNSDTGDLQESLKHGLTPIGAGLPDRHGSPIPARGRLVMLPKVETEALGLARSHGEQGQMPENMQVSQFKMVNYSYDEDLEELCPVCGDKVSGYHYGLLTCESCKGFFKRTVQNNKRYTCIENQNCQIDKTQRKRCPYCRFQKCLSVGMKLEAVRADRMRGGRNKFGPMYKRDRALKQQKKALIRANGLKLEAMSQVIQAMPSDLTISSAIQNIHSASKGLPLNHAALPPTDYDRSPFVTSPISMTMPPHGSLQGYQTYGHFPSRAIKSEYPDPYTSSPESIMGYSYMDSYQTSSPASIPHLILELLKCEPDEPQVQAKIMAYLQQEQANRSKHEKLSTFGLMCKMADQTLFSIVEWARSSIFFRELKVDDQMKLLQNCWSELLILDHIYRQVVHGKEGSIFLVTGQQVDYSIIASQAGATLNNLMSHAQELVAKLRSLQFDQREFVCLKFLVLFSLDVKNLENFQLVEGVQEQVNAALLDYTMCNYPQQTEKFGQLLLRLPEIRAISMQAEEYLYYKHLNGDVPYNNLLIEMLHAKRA
In all, about 360,000 compounds went through this assay and about 460 (0.13%) were called active.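 The calls were made as follows: active = inhibition above the mean inhibition of all tested compounds plus 3 SD (cut at about 73% in these data); inactive = the rest.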 The sample as a whole holds a higher share of actives than the screen did.
Give one outcome, nothing more. List: YES for active, NO for inactive

Observe how each entry below is paired with its result.
- compound: "O=C1C2(Cl)C3(Cl)C4(Cl)C(Cl)(Cl)C5(Cl)C3(Cl)C1(Cl)C5(Cl)C24Cl (stereo not drawn)"
  study.target: "Nuclear receptor subfamily 5 group A member 2 (Homo sapiens) (UniProt O00482)"
  qualitative.label: "NO"
- compound: "COc1ccccc1N=C1SCCCN1C"
  study.target: "Nuclear receptor subfamily 5 group A member 2 (Homo sapiens) (UniProt O00482)"
  qualitative.label: "NO"

Look up the recorded call for CC1=CC(=Cc2sc3ccccc3[n+]2C)C=C(C)O1 in this test. YES

Which outcome was entered for the compound COC(=O)C1=C(c2ccccc2)C[C@@H]2CC[C@H]1N2C(=O)N1CCCCC1 in this test? NO

Hello, I am checking results. What call was entered for Cc1cc(OCc2cc(C(=O)O)oc2C)c2c3c(c(=O)oc2c1)CCCC3 ? NO

Each compound tested received a call. Report the one for COc1ccc(-c2nn(CCC#N)cc2C(=O)Nc2ccc(C(C)=O)cc2)cc1 . NO

Short answer needed: outcome of this test for CCC(C)n1c(O)c(/C=N/Nc2nc3c(c(=O)n(C)c(=O)n3C)n2C)c(=O)[nH]c1=S (stereo not drawn) ? NO

Assay result, entry CCOc1ccc(-c2cc(C)[n+](CCN(CC)CC)c(-c3ccc(OCC)cc3)c2)cc1 — outcome? YES
